Values from PubChem BioAssay (NCI)

Give TGI for every item shown.
Tested on: SF-539 CNS
Assay: NCI tumour cell line growth inhibition, 48 h

Form field: reported TGI of O=C(O)CNCP(=O)(O)O
> 100 µM

Return reported TGI; argument: N#CCC(=O)N1CCCOCCC1
> 100 µM

Need TGI of CC1(C)O[C@@H](CC/C=C/CO)[C@H](CC/C=C/CO)O1 , thanks.
> 100 µM

Look at this compound and give its reported TGI. COC(=O)C(CCCCCCCC(C(=O)OC)c1nc2n(c1O)C(=N)N=N2)c1nc2n(c1O)C(=N)N=N2 (stereo unspecified)
> 100 µM

State the recorded TGI for this entry: N#CCCC1(CCC#N)CCCCCCC(CCC#N)(CCC#N)C(=O)C1=O
> 100 µM

Quick one: TGI for COc1ccc(Nc2nc3cc(C(F)(F)F)ccc3n3cccc23)cc1OC ?
34 µM

Param item = CCN(CC)CC1CCCCN1CC(=O)N1c2ccccc2NC(=O)c2ccccc21 (stereo unspecified) ; retrieve measured TGI.
> 100 µM

GET /values?readout=TGI&item= O=C1CCC/C=C\C[C@H]2C=CC(=O)/C2=C/C[C@H](CCc2cccc(C(F)(F)F)c2)O1
6.81 µM

# query: TGI of entry COc1cc(-c2nn(-c3ccc(NC(=O)NCCNS(=O)(=O)c4ccc(F)cc4)cc3)cc2-c2ccncc2)ccc1Cl
0.965 µM

What does the data say about its TGI? Entry: O=C(OCCO)C1CC2CC1C1(C2)OCCO1 (stereo unspecified)
> 100 µM

Tell me the measured TGI of CCOC(=O)/C(=C/c1ccc(C(F)(F)F)cc1)N(CC)CC , please.
> 100 µM

----------
System: A549 NSCLC
Experiment: NCI tumour cell line growth inhibition, 48 h
MEASURED_ENDPOINT: TGI

Would you kindly share the measured TGI for C=C(C)c1nc(C#N)c(N)o1 ?
> 100 µM

Quick one: TGI of COc1cc(O)cc2oc(-c3ccc(O)cc3)cc(=O)c12 ?
> 100 µM

Give its TGI value. Item: CCC1=C(CC)C1(C#N)[N+](=O)[O-]
> 100 µM

Look at this molecule and give its reported TGI. CN1C[C@@H](c2ccc(Cl)cc2)[C@]2(NC(=S)N(c3ccc(F)c(Cl)c3)C2=O)[C@@]12C(=O)NC1C=CC(Cl)=C[C@H]12 (stereo partly drawn)
12.3 µM

Would you mind telling me what TGI value was observed for CC1(C)Cc2c(c3ccccc3c3nc4c(nc23)c2c(c3ccccc34)OC(C)(C)C2)O1 ?
> 100 µM

Please look up its TGI: CN(C)c1ccc(/C=C(\NC(=O)c2ccccc2)C(=O)Nc2ccccc2C(=O)NCc2ccccc2)cc1
> 100 µM

Need TGI of Cc1noc(C)c1-n1nc2ccc3nonc3c2n1 , thanks.
> 100 µM

Name the recorded TGI for O=C1CCCC/C1=C(\Br)I .
58.6 µM

Tell me the measured TGI of C=Cc1c(C)c(O)cc2c1-c1ccc(O)c(C)c1CC2 , please.
55.7 µM

May I ask what TGI has been recorded for O=C(Nc1c(O)[nH]c(=S)[nH]c1=O)c1ccco1 ?
> 100 µM

Given the molecule Cc1cc(C)c([S@@](=O)O[C@@H]2[C@H]3OC(C)(C)O[C@H]3O[C@@H]2[C@H]2COC(C)(C)O2)c(C)c1 , what is its reported TGI?
> 100 µM

What value of TGI has been reported for the following molecule? O=C1NC(=O)C(c2c[nH]c3cc(Br)ccc23)=C1c1cnc[nH]1
> 100 µM

Any idea what TGI was measured for O=S(=O)(Nc1ccc(Cl)c(F)c1)c1ccc(-c2cnc(C3CC3)o2)cc1 ?
14.7 µM

Any idea what its TGI is? The molecule is NC(=O)c1c(Br)n(C2OC(CO)C(O)C2O)c2ncnc(N)c12 (stereo not drawn)
21.4 µM

Name the reported TGI value associated with the molecule CCc1n[nH]c(=O)n1N1C(=O)C2CCCCC2C1=O (stereo not drawn)
> 100 µM

Name the recorded TGI for COC1CC(Br)(C#N)C1 (stereo not drawn) .
> 100 µM

Data request, read-out TGI, for CCN(CC)c1ccc2cc3ccc(=[N+](CC)CC)cc-3oc2c1
16.6 µM

Need TGI of Cc1ccc(N2CN3OC(=O)N(c4ccccc4)[C@@]3(c3ccccc3)C2)cc1 , thanks.
> 100 µM

Fill in the blank: the reported TGI of CC(=O)Nc1c(Br)cc2c(c1Br)Cc1cc(Br)ccc1-2 is ____.
14.8 µM

I'd like to know its TGI. The molecule in question is O=C1OCC(C#Cc2ccccc2)=C1Br
34.6 µM

Given C[N+]1([O-])CCC(O)(C2CC2)CC1 (stereo not drawn) , state its recorded TGI.
> 100 µM

Reported TGI for CCOC(=O)CCC(NC(=O)c1ccc(Sc2nc3cc(N)cc(N)c3nc2-c2ccccc2)cc1)C(=O)OCC (stereo not drawn) : what is it?
> 100 µM

Would you mind telling me what TGI value was observed for COc1ccc(C2=C(c3cn(C)c4ccccc34)C(=O)OC2)cc1OC ?
> 100 µM
